assay-details: Toxicity liver stage against HepG2, at 10uM
Assay type: cell-based
Design: test concentration 10 uM, cell line HepG2-A16-CD81EGFP
experimental-context: human, HepG2-A16-CD81EGFP cells; read-out: INHIBITION
Reported cytotoxicity at 10 µM by item:
quantity-measured: cytotoxicity at 10 µM (%)

[[record]]
molecule = "NC(=O)CSc1nccc(-c2ccc3c(c2)OCO3)n1"
val = -7.38

[[record]]
molecule = "O=C(O)Cn1nc(C2CC2)c2c(-c3ccco3)ccnc21"
val = -3.96

[[record]]
molecule = "COCCn1ccnc1C1CCCN(c2cnccn2)C1 (configuration not stated)"
val = 3.23

[[record]]
molecule = "c1cnn(CCC2CCN(Cc3ccc4[nH]ccc4c3)CC2)c1"
val = -7.57

[[record]]
molecule = "CCC(C)(NCC(=O)NC(C)C)c1nccs1 (configuration not stated)"
val = 3.26

[[record]]
molecule = "O=C(N1CCCC1)N1CCC[C@]2(C[C@@H](OCc3ccncc3)CO2)C1"
val = 7.19

[[record]]
molecule = "Cc1occc1C(=O)NCC1OCCc2cn(C)nc21 (configuration not stated)"
val = 4.33


---

assay-details: Toxicity liver stage against HepG2, at 10uM
Format: cell-based
Parameters: test concentration 10 uM, cell line HepG2-A16-CD81EGFP
experimental-context: human, HepG2-A16-CD81EGFP cells; read-out: INHIBITION
Quick reference: cytotoxicity at 10 µM of the listed items.
quantity-measured: cytotoxicity at 10 µM

[[record]]
molecule = "Cn1c(C(=O)N2CC[C@@]3(O)CCCC[C@H]3C2)cc2ccccc21"
quantity_measured = "cytotoxicity at 10 µM"
val = "-46.8%"

[[record]]
molecule = "NC(=O)C(Nc1cccc(CO)c1)c1ccc(Br)cc1 (centres undefined)"
quantity_measured = "cytotoxicity at 10 µM"
val = "9.17%"

[[record]]
molecule = "Cc1csc(C(C)(C)NCC(=O)N2CCCC(C(F)(F)F)C2)n1 (centres undefined)"
quantity_measured = "cytotoxicity at 10 µM"
val = "6.32%"

[[record]]
molecule = "Nc1cc(-c2cccs2)nn(CC(=O)N2CCc3ccccc32)c1=O"
quantity_measured = "cytotoxicity at 10 µM"
val = "-10%"

[[record]]
molecule = "CC(C)(C)N1CC(C(=O)NCc2nc(C3CCCCC3)no2)CC1=O (centres undefined)"
quantity_measured = "cytotoxicity at 10 µM"
val = "1.08%"

[[record]]
molecule = "CCCc1cc(C(=O)Nc2nc(SC)ns2)[nH]n1"
quantity_measured = "cytotoxicity at 10 µM"
val = "-19.3%"

[[record]]
molecule = "CNc1ncc(CN(C)C2CCN(C(C)C)CC2)cn1"
quantity_measured = "cytotoxicity at 10 µM"
val = "-3.14%"

[[record]]
molecule = "CCn1cnnc1CNC(=O)N(C)Cc1c(F)cccc1Cl"
quantity_measured = "cytotoxicity at 10 µM"
val = "-5.56%"

[[record]]
molecule = "O=C(c1ccnn1-c1ccc2ccccn12)N1CCOCC1"
quantity_measured = "cytotoxicity at 10 µM"
val = "-108%"

[[record]]
molecule = "CN(C)CCNC(=O)CCC1CCN(C(=O)c2ccc(O)cn2)CC1"
quantity_measured = "cytotoxicity at 10 µM"
val = "1.23%"

[[record]]
molecule = "O=S(=O)(c1cccnc1)N1CCCCC1CCN1CCOCC1 (centres undefined)"
quantity_measured = "cytotoxicity at 10 µM"
val = "-3.03%"

[[record]]
molecule = "Fc1ccc(OCc2nnc([C@H]3CCN(Cc4ccncc4)C3)o2)cc1"
quantity_measured = "cytotoxicity at 10 µM"
val = "-1.81%"

[[record]]
molecule = "Cc1ccc(C)c(S(=O)(=O)NCCOc2ccc3nnc(C)n3n2)c1"
quantity_measured = "cytotoxicity at 10 µM"
val = "-11.3%"

[[record]]
molecule = "CNC(=O)CN1C(=O)CCC12CCCN(CCc1ccccc1)C2 (centres undefined)"
quantity_measured = "cytotoxicity at 10 µM"
val = "1.35%"

[[record]]
molecule = "O=C1OCCN1Cc1ccc(C(F)(F)F)cc1F"
quantity_measured = "cytotoxicity at 10 µM"
val = "-0.419%"

[[record]]
molecule = "CC(NC(=O)N1CCN(CCc2ccccc2)CC1)c1nncn1C (centres undefined)"
quantity_measured = "cytotoxicity at 10 µM"
val = "0.0722%"

[[record]]
molecule = "Cc1nc(COc2ccc(S(=O)(=O)N(C)C)cc2)sc1C"
quantity_measured = "cytotoxicity at 10 µM"
val = "-1.13%"

[[record]]
molecule = "CC(C)Cc1cc(CNC(=O)C2CCCN(Cc3ccco3)C2)no1 (centres undefined)"
quantity_measured = "cytotoxicity at 10 µM"
val = "3.11%"

[[record]]
molecule = "CN1CCN(Cc2c[nH]cn2)CC12CCC(=O)N(CC1CC1)CC2 (centres undefined)"
quantity_measured = "cytotoxicity at 10 µM"
val = "2.98%"

[[record]]
molecule = "Cc1nn(C)c(Cl)c1C1CCCN1C(=O)c1ccc2c(c1)OCO2 (centres undefined)"
quantity_measured = "cytotoxicity at 10 µM"
val = "-2.9%"

[[record]]
molecule = "Cc1ccc(N2CC[C@H]3CO[C@H](CN(C)Cc4ccco4)[C@H]3C2)nn1"
quantity_measured = "cytotoxicity at 10 µM"
val = "8.35%"

[[record]]
molecule = "CN1CCN(C(=O)c2ccccc2)CC(Cc2cc(N(C)C)ncn2)C1 (centres undefined)"
quantity_measured = "cytotoxicity at 10 µM"
val = "2%"

[[record]]
molecule = "CC(C)(C)n1cc(C2=CCN(CCc3ccccc3)CC2)cn1"
quantity_measured = "cytotoxicity at 10 µM"
val = "14.3%"

[[record]]
molecule = "Fc1cccc(CN2CCOCC3(CCN(C4CCOCC4)C3)C2)c1 (centres undefined)"
quantity_measured = "cytotoxicity at 10 µM"
val = "-0.503%"

[[record]]
molecule = "COC(=O)C1CCCCN1Cc1cccc(C(=O)NCc2ccco2)c1 (centres undefined)"
quantity_measured = "cytotoxicity at 10 µM"
val = "-12.5%"

[[record]]
molecule = "Cc1ccc(C(=O)NCC(O)c2ccc(F)c(F)c2)c(=O)[nH]1 (centres undefined)"
quantity_measured = "cytotoxicity at 10 µM"
val = "-3.09%"

[[record]]
molecule = "COCCNC(=O)c1cc(S(=O)(=O)N2CCCC2)cs1"
quantity_measured = "cytotoxicity at 10 µM"
val = "6.15%"

[[record]]
molecule = "COCCN(CCOC)C(=O)c1ccc(Cn2nc(C)cc2C)cc1"
quantity_measured = "cytotoxicity at 10 µM"
val = "-5.15%"

[[record]]
molecule = "CNC(=O)CC1CCN(C(=O)NCc2coc3ccccc23)CC1"
quantity_measured = "cytotoxicity at 10 µM"
val = "-11.4%"

[[record]]
molecule = "COc1ccc(Cc2cccc(C3CCN(C)CC3)n2)cc1"
quantity_measured = "cytotoxicity at 10 µM"
val = "0.153%"

[[record]]
molecule = "c1cc(CN2Cc3nccn3CC(Cn3cncn3)C2)ccn1 (centres undefined)"
quantity_measured = "cytotoxicity at 10 µM"
val = "-134%"

[[record]]
molecule = "CNC(=O)[C@@H]1C[C@H]2CN(Cc3ccc(C)o3)C[C@H]2N1C(C)=O"
quantity_measured = "cytotoxicity at 10 µM"
val = "-103%"

[[record]]
molecule = "Cc1ccc(NS(=O)(=O)c2ccc(C#N)cc2)c(CN(C)C)c1"
quantity_measured = "cytotoxicity at 10 µM"
val = "-8.51%"

[[record]]
molecule = "O=C1COC2(CCN(C(=O)c3ccco3)CC2)CN1Cc1cccnc1"
quantity_measured = "cytotoxicity at 10 µM"
val = "7.2%"


---

assay-details: Toxicity liver stage against HepG2, at 10uM
Type: cell-based
Design: test concentration 10 uM, cell line HepG2-A16-CD81EGFP
experimental-context: human, HepG2-A16-CD81EGFP cells; read-out: INHIBITION
# cutoff -10% applies to cytotoxicity at 10 µM; >= gives Criterion met, < gives Criterion not met

[[record]]
compound = "CCCN1CCC(Cc2noc(-c3cccnc3OC)n2)CC1"
cat = "Criterion not met"

[[record]]
compound = "Cn1cc(CN2CCCC23CCN(C(=O)c2ccccc2)CC3)cn1"
cat = "Criterion met"

[[record]]
compound = "O=C(C[S+]([O-])Cc1ccc(F)cc1)N1CCc2sccc2C1 (stereo not drawn)"
cat = "Criterion met"

[[record]]
compound = "Cc1ccc(CN2CC[C@H]3C[C@@H](c4nc(C5CC5)cs4)O[C@@H]3C2)o1"
cat = "Criterion met"

[[record]]
compound = "CC(C)NC(=O)[C@H]1C[C@@H]2[C@@H](C1)OCCN2Cc1ccncc1"
cat = "Criterion met"

[[record]]
compound = "Cc1noc(C2CCCN(CC(=O)N3CCc4ccccc4C3)C2)n1 (stereo not drawn)"
cat = "Criterion not met"

[[record]]
compound = "CC(=O)N1C[C@H](NS(=O)(=O)Cc2cccc(Cl)c2)[C@@H](C(C)C)C1"
cat = "Criterion met"

[[record]]
compound = "NC(=O)c1cccc(CC2CCN(C(=O)Cn3cnnn3)C2)c1 (stereo not drawn)"
cat = "Criterion met"

[[record]]
compound = "Cc1cnc(CN(Cc2ccccc2)CC(O)c2cccs2)cn1 (stereo not drawn)"
cat = "Criterion not met"

[[record]]
compound = "F[C@@H]1CN(C2CCC2)C[C@@H]1OCc1nc2ncccc2[nH]1"
cat = "Criterion met"

[[record]]
compound = "N#Cc1ccc(CNCC(C(=O)N2CCOCC2)c2ccccc2)cc1 (stereo not drawn)"
cat = "Criterion not met"

[[record]]
compound = "Cc1noc(CN2CCCC2c2noc(C3CC3)n2)n1 (stereo not drawn)"
cat = "Criterion not met"

[[record]]
compound = "CCS(=O)(=O)N1CCC(c2nc(C)c(C)c(N3CCCC3)n2)CC1"
cat = "Criterion met"

[[record]]
compound = "COCCCC(=O)NCc1cccc(NC(N)=O)c1"
cat = "Criterion met"

[[record]]
compound = "CSc1ccccc1NC(=O)C1CSc2ncc(C)c(=O)n2C1 (stereo not drawn)"
cat = "Criterion met"

[[record]]
compound = "CN(C)Cc1nnc2n1CCN(c1cnccn1)CC2"
cat = "Criterion not met"

[[record]]
compound = "Cc1cnc(NC2CCc3c(ccc(=O)n3CC3CC3)C2)nc1 (stereo not drawn)"
cat = "Criterion not met"

[[record]]
compound = "Cc1ccc(CN2CC[C@@H]3OCCN(S(C)(=O)=O)[C@H]3CC2)s1"
cat = "Criterion met"

[[record]]
compound = "Cn1c(-c2ccccc2Cl)nc2cc(C(=O)NCCOCCO)cnc21"
cat = "Criterion met"

[[record]]
compound = "COc1ccc(CN(CC2CCCO2)C(=O)CN2CCCCC2=O)cc1 (stereo not drawn)"
cat = "Criterion met"

[[record]]
compound = "CCNc1ncc(C(=O)N(C)C(C)c2ccc3c(c2)OCCO3)cn1 (stereo not drawn)"
cat = "Criterion met"

[[record]]
compound = "Cc1nn(C)c2ncnc(NCC(O)CN3CCCCC3)c12 (stereo not drawn)"
cat = "Criterion met"

[[record]]
compound = "Cn1cc(CNc2cnn(CC3CCCO3)c2)c(-c2ccncc2)n1 (stereo not drawn)"
cat = "Criterion met"

[[record]]
compound = "CNc1cc2c(nn1)CCN(C(=O)c1coc(Br)c1)C2"
cat = "Criterion not met"

[[record]]
compound = "CC(C)c1ccc(C(O)Cn2c(=O)c(C#N)cn(C3CC3)c2=O)cc1 (stereo not drawn)"
cat = "Criterion not met"

[[record]]
compound = "CC(=O)Nc1nc2c(s1)C1(CCN(C)CC1)Nc1ccccc1S2"
cat = "Criterion not met"

[[record]]
compound = "CN(CCNC(=O)c1cnc(-c2ccccc2)nc1)S(C)(=O)=O"
cat = "Criterion met"

[[record]]
compound = "c1ncn(CC2CN(CC3CCCCC3)CCO2)n1 (stereo not drawn)"
cat = "Criterion not met"

[[record]]
compound = "CC(C)Nc1ncnc2c1CCNCC2"
cat = "Criterion met"

[[record]]
compound = "COc1ccc(CN2CCC3(CC(=O)N(c4cccc(F)c4)C3)C2)cc1 (stereo not drawn)"
cat = "Criterion not met"

[[record]]
compound = "CC(=O)CSc1sc2c(O)cc(=O)[nH]c2c1C(N)=O"
cat = "Criterion met"

[[record]]
compound = "CC(C)(C)c1cnc(CN2CCC(NC(=O)C3CCOCC3)CC2)o1"
cat = "Criterion not met"

